Assay: Plasma pharmacokinetics, multiple-ascending-dose phase 1 study
Format: in vivo, human
Details: human, plasma, po, 600 mg, 600 mg Q12h oral, day 1; median (minimum, maximum); read-out: Plasma Tmax
propertyLabel: Tmax (h)
Express your answer in h, writing the number without its unit.

Look at this compound and give its reported Tmax. O=c1cc(NCCCN[C@@H]2CCOc3c(Br)cc(Br)cc32)[nH]c2ccsc12
2

----------
Test: Plasma pharmacokinetics, multiple-ascending-dose phase 1 study
Type: in vivo, human
Conditions: human, plasma, oral, 400 mg, 400 mg Q12h, day 10; geometric mean; read-out: Plasma t1/2,ss (converted)
propertyLabel: half-life (h)
Supply the numeric figure in h, leaving out any unit text.

Name the reported half-life value associated with the molecule O=c1cc(NCCCN[C@@H]2CCOc3c(Br)cc(Br)cc32)[nH]c2ccsc12
5.19

----------
Assay: Plasma pharmacokinetics, multiple-ascending-dose phase 1 study
Format: in vivo, human
Conditions: human, plasma; 600 mg Q12h oral, day 10; geometric mean (%CV); read-out: Plasma AUC (AUC0–tau)
propertyLabel: AUC (ng·h/mL)
Could you give me the number in ng·h/mL? Just the number is fine.

Report AUC for O=c1cc(NCCCN[C@@H]2CCOc3c(Br)cc(Br)cc32)[nH]c2ccsc12 [CRS3123] please.
4030

----------
Assay: Plasma pharmacokinetics, multiple-ascending-dose phase 1 study
Type: in vivo, human
Settings: human, plasma, po, 400 mg, 400 mg Q12h oral, day 1; geometric mean (%CV); read-out: Plasma Cmax
propertyLabel: Cmax (ng/mL)
Write down the numeric answer in ng/mL and omit the unit.

Bench note: what Cmax did O=c1cc(NCCCN[C@@H]2CCOc3c(Br)cc(Br)cc32)[nH]c2ccsc12 show?
507

----------
Test: Plasma pharmacokinetics, multiple-ascending-dose phase 1 study
Format: in vivo, human
Conditions: human, plasma, oral; 200 mg Q12h, day 1; median; read-out: Plasma AUC(0-12)
propertyLabel: AUC(0-t) (ng·h/mL)
Response body: numeric value in ng·h/mL, unit text excluded.

I have this molecule here, O=c1cc(NCCCN[C@@H]2CCOc3c(Br)cc(Br)cc32)[nH]c2ccsc12 [CRS3123] , and I need its recorded AUC(0-t).
1230

----------
Test: Plasma pharmacokinetics, multiple-ascending-dose phase 1 study
Type: in vivo, human
Conditions: human, plasma, po, 200 mg, 200 mg Q12h oral, day 10; median (minimum, maximum); read-out: Plasma t1/2,ss (converted)
Procedure: This study was conducted in full accordance with the Declaration of Helsinki and good clinical practices (GCP) at Quintiles Phase One Services in Overland Park, KS. […] After a screening period of up to 35 days, eligible subjects were admitted to the study center for baseline evaluations on day −1. […] During the inpatient period, subjects were monitored for safety and pharmacokinetics (PK). […]
propertyLabel: half-life (h)
Record the value in h, omitting the unit from your answer.

Entry O=c1cc(NCCCN[C@@H]2CCOc3c(Br)cc(Br)cc32)[nH]c2ccsc12 has what half-life?
4.59

----------
Experiment: Plasma pharmacokinetics, multiple-ascending-dose phase 1 study
Assay type: in vivo, human
Details: human, plasma, po, 600 mg, 600 mg Q12h oral, day 1; geometric mean (%CV); read-out: Plasma Cmax
propertyLabel: Cmax (ng/mL)
The figure you give is taken to be in ng/mL; do not add the unit.

Return reported Cmax; argument: O=c1cc(NCCCN[C@@H]2CCOc3c(Br)cc(Br)cc32)[nH]c2ccsc12
654
